Ref: the METLIN SMRT retention time set (Domingo-Almenara et al. 2019)

Protocol description: gradient 5% acetonitrile 3 min, to 50% in 2 min, to 85% in 15 min, held 3 min, 100 µL/min
Condition label: column: Zorbax Extend-C18 2.1 x 50 mm; eluents: water / acetonitrile, 0.1% formic acid
API: label(entry) gives yes if the entry's RP-LC retention time is strictly smaller than 800 s; on equality or larger values it gives no.

Some solved entries appear below for comparison.
Does CC1(C(=O)NCc2ccc(F)cc2)Cn2cnc(C(=O)NC3CCCCC3)c2C(=O)N1C1CC1 (stereo not given) have RP-LC retention time strictly under 800 s? yes

# repeat for CC(C)CN1C(=O)c2cccn2CC1C(=O)NCc1cccs1 (stereo not given) yes

# repeat for COc1cccc(CN2CCc3nn(Cc4ccccc4)c(=O)n3CC2)n1 yes

# repeat for Cc1cccc2nnc(N3CCN(C(=O)c4ccc(F)c(F)c4)CC3)n12 yes

# repeat for Cn1c(CNC(=O)CCC2CCCN(c3cc(NC4CC4)ncn3)C2)nc2ccccc21 (stereo not given) yes

***
Does Cc1ccccc1NC(=O)Cn1nc2n(c1=O)CCCC2 have RP-LC retention time strictly under 800 s? yes

# repeat for COc1cc(OC)c(NC(=O)c2c(OC)cc(=O)n3c2CCCC3)cc1Cl no

# repeat for O=C(Nc1ccccc1C(F)(F)F)C1CCCN(C(=O)Cc2cccc3ccccc23)C1 (stereo not given) no

# repeat for Cc1ccc(Cn2c(N3CCCC(C(=O)NC4CCCC4)C3)nc3ccsc3c2=O)cc1 (stereo not given) no

----------
Protocol description: gradient 5% acetonitrile 3 min, to 50% in 2 min, to 85% in 15 min, held 3 min, 100 µL/min
Condition label: column: Zorbax Extend-C18 2.1 x 50 mm; eluents: water / acetonitrile, 0.1% formic acid
Metric name: RP-LC retention time (s)
Give the number; s is assumed, so skip it.

Guide cases for RP-LC retention time, answers given:
Looking for the measured RP-LC retention time of O=c1oc2cc(O)ccc2s1 , can you help? 771

# repeat for Cc1oc(-c2[nH]ncc2C(=O)N2CCCC2)cc1S(=O)(=O)NCc1cccnc1 574

# repeat for O=C(NCCOc1cccc(C(F)(F)F)c1)C1CCCC1 880

# repeat for COc1c(C(=O)N2CCN(c3ccccc3)CC2)sc2cccc(F)c12 1090

# repeat for COC[C@@H]1CN(Cc2c(C)n[nH]c2C)C[C@H]1c1ccncc1 559

Attention now shifts to the item below.
Looking for the measured RP-LC retention time of N#Cc1ccc(S(=O)(=O)N2CC(c3nc(CCOCC4CCOCC4)no3)C2)cc1 , can you help? 813

----------
Protocol description: gradient 5% acetonitrile 3 min, to 50% in 2 min, to 85% in 15 min, held 3 min, 100 µL/min
Condition label: column: Zorbax Extend-C18 2.1 x 50 mm; eluents: water / acetonitrile, 0.1% formic acid
Metric name: RP-LC retention time (s)
Give the number; s is assumed, so skip it.

Guide cases for RP-LC retention time, answers given:
Looking for the measured RP-LC retention time of COc1ccc(CC(=O)NCCc2c[nH]c3ccc(Cl)cc23)cc1 , can you help? 848

# repeat for Cc1ccc(-c2ccc(=O)n(Cc3noc(C(=O)NCCc4ccc(S(N)(=O)=O)cc4)n3)n2)cc1 781

# repeat for CCc1noc(-c2nc(-c3cc(OC)c(OC)c(OC)c3)no2)n1 892

# repeat for COC(=O)c1ccc(NC(=O)N2CCCC2c2ccc(F)cc2)cc1 (centres undefined) 919

***
Looking for the measured RP-LC retention time of CCn1cnc(S(=O)(=O)N2CCC(C(=O)Nc3cc(OC)ccc3OC)CC2)c1 , can you help? 728

# repeat for O=C(NCc1cccc(Br)c1)c1cn2nc(Cl)ccc2n1 867

# repeat for CC(=O)Nc1ncncc1N1CCC(C(=O)NCc2cccc(C(F)(F)F)c2)CC1 698

# repeat for C[C@H]1CN(C(=O)c2c(F)cccc2F)C[C@@H]1c1nc(-c2ccncc2)no1 798

# repeat for Brc1cccc(-c2nnc(Cc3nc(-c4ccccc4)no3)o2)c1 1080

----------
Protocol description: gradient 5% acetonitrile 3 min, to 50% in 2 min, to 85% in 15 min, held 3 min, 100 µL/min
Condition label: column: Zorbax Extend-C18 2.1 x 50 mm; eluents: water / acetonitrile, 0.1% formic acid
Label YES when RP-LC retention time is at or above 700 s; otherwise label NO.

Hello, I need to know if CCN1CCN(CCNC(=O)c2ccc(CS(=O)c3cccc(Cl)c3)o2)CC1 (stereo not given) has measured RP-LC retention time not below 700 s. Thanks! NO

***
Hello, I need to know if COCCN(C)C(=O)c1cn(C2CN(S(=O)(=O)C(C)C)C2)nn1 has measured RP-LC retention time not below 700 s. Thanks! NO

# repeat for CCCC(=O)Nc1nc(-c2ccc3c(c2)NC(=O)CO3)c(C)s1 YES

# repeat for COc1ccc(Cl)cc1S(=O)(=O)N1CCCN(c2ccc(=O)n(-c3ccccc3)n2)CC1 YES

# repeat for Cc1cccc(CNC(=O)c2cc3n(n2)CC(C)(C(=O)NCCC(C)C)N(C)C3=O)c1 (stereo not given) YES

# repeat for COc1ccc(-c2ccc(=O)n(Cc3nc(-c4ccc(F)cc4)no3)n2)cc1OC YES

# repeat for Cc1oc2ccn(Cc3ccc(F)cc3)c(=O)c2c1C(=O)NCc1cccs1 YES

# repeat for Cc1nnc(-c2cccnc2N2CCN(C(=O)c3ccsc3)CC2)o1 NO

----------
Protocol description: gradient 5% acetonitrile 3 min, to 50% in 2 min, to 85% in 15 min, held 3 min, 100 µL/min
Condition label: column: Zorbax Extend-C18 2.1 x 50 mm; eluents: water / acetonitrile, 0.1% formic acid
Note that class boundaries on RP-LC retention time are lower segment: < 700 s; middle segment: ≥ 700 s and < 1000 s; upper segment: ≥ 1000 s

Exercise: read the entry O=C(CCCSc1ccc(NC(=O)c2ccc(F)cc2)nn1)Nc1nccs1 and state which class it falls under. middle segment

# repeat for CCN(CC)C(=O)CN1C(=O)C2CCCCN2c2ccc(S(=O)(=O)N3CCCC3)cc21 (centres undefined) middle segment

# repeat for CCC(C)NS(=O)(=O)c1c(C)nn(-c2ccc(-c3ccc(C)cc3)nn2)c1C (centres undefined) upper segment

***
Exercise: read the entry Cc1ccc(N2CN(CCC(C)C)S(=O)(=O)c3cccnc32)cc1 and state which class it falls under. upper segment

# repeat for O=C(Cc1cccnc1)N1CCCn2nc(-c3ccc(F)cc3)cc2C1 lower segment

----------
RP-LC retention time values by entry
Protocol description: gradient 5% acetonitrile 3 min, to 50% in 2 min, to 85% in 15 min, held 3 min, 100 µL/min
Condition label: column: Zorbax Extend-C18 2.1 x 50 mm; eluents: water / acetonitrile, 0.1% formic acid
Field: value (include unit after the number)

Guide cases for RP-LC retention time, answers given:
Looking for the measured RP-LC retention time of COc1ccc(CNC(=O)Cn2nc(C(=O)N3CCCC3)c3ccccc32)cc1 , can you help? 773 s

# repeat for CCOc1ccc(-c2csc3c(=O)n(Cc4ccc(N5CCCC5=O)cc4)cnc23)cc1OCC 929 s

# repeat for CCOc1ccc(CNC(=O)c2cnc(N3CCSCC3)nc2N)cc1 716 s

# repeat for O=C(Nc1ccc2c(c1)OCO2)c1c(O)c2ccccc2n(-c2ccccc2)c1=O 858 s

# repeat for CCC(C)c1ccc(NC(=O)C2CCN(C(=O)C(C)(C)C)CC2)cc1 (centres undefined) 983 s

***
Looking for the measured RP-LC retention time of O=C(CCNc1cnc2cnccn12)NCc1ccc(N2CCCCC2)cc1 , can you help? 533 s

# repeat for COc1ccc(-c2nnc(-c3ccc(C)c(S(=O)(=O)NCc4cccnc4)c3)o2)cc1OC 660 s

# repeat for CC(C)NC(=O)CN1C(=O)CSc2ccc(C(=O)N3CCCCC3)cc21 673 s

# repeat for CCOC(=O)C1CCC(CNC(=O)N2CCN(Cc3nc4cc(C)ccc4o3)CC2)CC1 (centres undefined) 735 s

----------
Protocol description: gradient 5% acetonitrile 3 min, to 50% in 2 min, to 85% in 15 min, held 3 min, 100 µL/min
Condition label: column: Zorbax Extend-C18 2.1 x 50 mm; eluents: water / acetonitrile, 0.1% formic acid
RP-LC retention time values by entry
Give the number; s is assumed, so skip it.

Guide cases for RP-LC retention time, answers given:
Looking for the measured RP-LC retention time of O=C1C(N2CCN(S(=O)(=O)c3ccccc3F)CC2)CCN1Cc1ccccn1 (stereo not given) , can you help? 571

# repeat for CN(CC1CCOC1)C(=O)Nc1c(F)cccc1F (stereo not given) 638

# repeat for COc1ccc(-c2ncc3c(n2)CCN(C(=O)c2ccccc2C(F)(F)F)C3)cc1 983

# repeat for Cc1noc(C2CN(C(=O)c3ccc(C#N)cc3)CC23CCOCC3)n1 (stereo not given) 642

# repeat for Cc1noc([C@@H]2CC(F)(F)CN2C(=O)CCc2c(C)noc2C)n1 718

***
Looking for the measured RP-LC retention time of COc1ccc(-c2cc(C(=O)N(C)C)c(C)n2C)cc1 , can you help? 808

# repeat for N#Cc1cccc(-c2cn3c(n2)N(C(=O)COc2ccccc2)CCC3)c1 961

# repeat for Cc1nc2c(sc3nc(-c4ccccc4)ccc32)c(=O)n1CC(=O)Nc1cc(F)cc(F)c1 1270
